Biological target: cGMP-inhibited 3',5'-cyclic phosphodiesterase 3A (Homo sapiens, UniProt Q14432)
Sequence (Q14432 whole entry): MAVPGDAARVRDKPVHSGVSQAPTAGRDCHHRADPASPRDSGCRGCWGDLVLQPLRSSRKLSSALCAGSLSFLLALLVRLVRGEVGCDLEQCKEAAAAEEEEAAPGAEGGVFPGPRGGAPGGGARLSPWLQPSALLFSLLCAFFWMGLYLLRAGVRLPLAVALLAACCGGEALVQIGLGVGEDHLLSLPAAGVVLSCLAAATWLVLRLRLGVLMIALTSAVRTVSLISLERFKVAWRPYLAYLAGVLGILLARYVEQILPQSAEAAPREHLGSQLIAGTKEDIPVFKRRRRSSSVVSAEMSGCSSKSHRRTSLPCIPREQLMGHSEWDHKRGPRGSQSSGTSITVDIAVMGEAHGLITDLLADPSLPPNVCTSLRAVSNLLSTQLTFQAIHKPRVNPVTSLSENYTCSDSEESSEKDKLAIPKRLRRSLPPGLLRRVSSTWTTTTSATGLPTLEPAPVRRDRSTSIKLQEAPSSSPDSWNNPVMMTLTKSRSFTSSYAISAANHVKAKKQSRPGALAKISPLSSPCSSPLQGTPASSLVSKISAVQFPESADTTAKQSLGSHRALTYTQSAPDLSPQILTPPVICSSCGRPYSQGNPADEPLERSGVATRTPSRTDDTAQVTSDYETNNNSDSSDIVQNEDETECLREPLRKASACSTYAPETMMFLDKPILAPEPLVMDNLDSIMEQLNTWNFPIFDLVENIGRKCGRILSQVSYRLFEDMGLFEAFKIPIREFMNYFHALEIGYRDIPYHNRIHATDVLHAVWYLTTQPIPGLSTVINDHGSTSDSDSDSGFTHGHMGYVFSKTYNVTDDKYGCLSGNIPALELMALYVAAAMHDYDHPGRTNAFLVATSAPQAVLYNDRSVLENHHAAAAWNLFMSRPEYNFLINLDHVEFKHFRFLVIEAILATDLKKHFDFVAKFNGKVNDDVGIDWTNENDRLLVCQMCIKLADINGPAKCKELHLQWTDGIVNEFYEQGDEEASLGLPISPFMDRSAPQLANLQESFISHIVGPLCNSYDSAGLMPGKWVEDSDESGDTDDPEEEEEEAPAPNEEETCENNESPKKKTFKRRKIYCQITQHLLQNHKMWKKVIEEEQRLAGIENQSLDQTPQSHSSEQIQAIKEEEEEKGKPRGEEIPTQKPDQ
pIC50: −log10 of the molar value.
measure.name: pIC50

Exercise: Please report the measured pIC50 for N#Cc1c(C2CCCC2)c2ccc(NCc3ccc(F)cn3)cc2n(CC2CCCC2)c1=O
Key: < 5.00

* * *

Biological target: High affinity 3',5'-cyclic-AMP phosphodiesterase 7A (Homo sapiens, UniProt Q13946)
Sequence (Q13946 whole entry): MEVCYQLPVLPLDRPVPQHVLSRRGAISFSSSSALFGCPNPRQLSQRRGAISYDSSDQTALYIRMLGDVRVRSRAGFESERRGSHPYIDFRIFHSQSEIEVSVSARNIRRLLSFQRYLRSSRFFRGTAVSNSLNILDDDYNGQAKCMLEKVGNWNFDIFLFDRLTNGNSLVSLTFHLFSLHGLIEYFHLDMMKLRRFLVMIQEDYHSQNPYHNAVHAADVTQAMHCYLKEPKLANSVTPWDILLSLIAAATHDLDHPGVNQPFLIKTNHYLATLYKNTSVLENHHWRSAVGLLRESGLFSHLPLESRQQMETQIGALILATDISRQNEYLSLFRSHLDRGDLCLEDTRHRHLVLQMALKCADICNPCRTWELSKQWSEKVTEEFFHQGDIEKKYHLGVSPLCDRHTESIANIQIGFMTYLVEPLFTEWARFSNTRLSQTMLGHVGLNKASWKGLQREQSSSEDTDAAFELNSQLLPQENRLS
measure.name: pIC50
One number for each entry, as −log10 of the molar value.

Exercise: Give the value of pIC50 reported for the following: N#Cc1c(C2CCCC2)c2ccc(NCc3ccc(F)cn3)cc2n(CC2CCCC2)c1=O
Key: 5.64

* * *

Molecular target: High affinity cAMP-specific and IBMX-insensitive 3',5'-cyclic phosphodiesterase 8A (Homo sapiens, UniProt O60658)
Sequence (O60658 whole entry, the tested form may be a part): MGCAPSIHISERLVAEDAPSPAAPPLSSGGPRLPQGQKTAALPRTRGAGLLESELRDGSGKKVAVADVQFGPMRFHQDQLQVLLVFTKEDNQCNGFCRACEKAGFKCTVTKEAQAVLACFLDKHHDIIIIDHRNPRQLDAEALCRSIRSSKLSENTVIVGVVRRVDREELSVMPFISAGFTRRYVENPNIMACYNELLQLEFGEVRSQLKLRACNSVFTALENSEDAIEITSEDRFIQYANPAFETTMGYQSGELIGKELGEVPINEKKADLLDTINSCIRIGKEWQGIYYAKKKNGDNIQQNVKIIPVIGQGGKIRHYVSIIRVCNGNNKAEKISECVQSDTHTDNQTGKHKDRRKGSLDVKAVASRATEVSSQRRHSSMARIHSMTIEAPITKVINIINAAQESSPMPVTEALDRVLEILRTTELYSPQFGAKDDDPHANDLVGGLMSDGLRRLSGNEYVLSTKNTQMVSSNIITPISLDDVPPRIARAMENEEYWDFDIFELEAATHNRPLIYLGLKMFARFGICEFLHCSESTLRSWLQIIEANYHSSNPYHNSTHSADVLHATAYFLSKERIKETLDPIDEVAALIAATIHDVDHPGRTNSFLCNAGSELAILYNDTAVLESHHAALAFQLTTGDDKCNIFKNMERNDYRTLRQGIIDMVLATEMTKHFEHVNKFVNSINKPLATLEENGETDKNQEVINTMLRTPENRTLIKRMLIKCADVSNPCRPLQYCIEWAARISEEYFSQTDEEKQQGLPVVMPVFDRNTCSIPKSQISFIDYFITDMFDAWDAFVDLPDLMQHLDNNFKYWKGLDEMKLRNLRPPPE
Test: Inhibition of PDE8A (480 to 820 residues) (unknown origin) using 3H-cAMP as substrate incubated for 15 mins by liquid scintillation counter analysis
measure.name: IC50

Exercise: Return reported IC50. Input compound: N#Cc1c(C2CCCC2)c2ccc(NCc3ccc(F)cn3)cc2n(CC2CCCC2)c1=O
Key: > 10 µM

* * *

Molecular target: Dual specificity calcium/calmodulin-dependent 3',5'-cyclic nucleotide phosphodiesterase 1C (Homo sapiens)
Sequence (Q14123 whole entry, the tested form may be a part): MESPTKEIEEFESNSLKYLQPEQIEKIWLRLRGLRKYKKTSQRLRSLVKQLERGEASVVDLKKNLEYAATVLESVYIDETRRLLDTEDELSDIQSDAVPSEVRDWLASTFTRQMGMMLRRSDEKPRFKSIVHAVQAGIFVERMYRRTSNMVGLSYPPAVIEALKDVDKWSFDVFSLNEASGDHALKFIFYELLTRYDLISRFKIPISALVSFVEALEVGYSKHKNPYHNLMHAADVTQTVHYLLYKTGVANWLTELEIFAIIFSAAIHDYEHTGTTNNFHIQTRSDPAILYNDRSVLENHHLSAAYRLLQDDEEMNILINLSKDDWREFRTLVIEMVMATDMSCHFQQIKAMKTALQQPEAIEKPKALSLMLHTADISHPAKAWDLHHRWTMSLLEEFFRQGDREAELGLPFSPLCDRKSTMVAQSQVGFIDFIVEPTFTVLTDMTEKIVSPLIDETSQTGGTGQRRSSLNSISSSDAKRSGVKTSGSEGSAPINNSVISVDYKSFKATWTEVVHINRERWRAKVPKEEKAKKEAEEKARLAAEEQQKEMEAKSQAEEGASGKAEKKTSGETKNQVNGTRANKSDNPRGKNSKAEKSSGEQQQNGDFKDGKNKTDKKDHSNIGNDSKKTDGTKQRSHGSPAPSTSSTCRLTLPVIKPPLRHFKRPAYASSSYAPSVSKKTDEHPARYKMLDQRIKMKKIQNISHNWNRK
Test: Inhibition of PDE1C (147 to 531 residues) (unknown origin) using 3H-cGMP as substrate incubated for 15 mins by liquid scintillation counter analysis
Labelling: IC50 reported below 20 nM becomes criterion met; at or above becomes criterion not met.

CC(Nc1ccc2c(C3CCCC3)c(C#N)c(=O)n(CC3CCCC3)c2c1)c1ccccn1 (centres undefined)    criterion met

Exercise: Decide: IC50 of C[C@@H](Nc1ccc2c(C3CCCC3)c(C#N)c(=O)n(CC3CCCC3)c2c1)c1ccccn1 strictly below 20 nM?
Key: criterion not met

Exercise: Dear reviewer, please state whether C[C@H](Nc1ccc2c(C3CCCC3)c(C#N)c(=O)n(CC3CCCC3)c2c1)c1ccccn1 has IC50 strictly beneath 20 nM.
Key: criterion met

Exercise: is_below(IC50, 20 nM) for CCCCNc1ccc2c(-c3ccc(C)cc3)c(C#N)c(=O)n(Cc3ccccc3)c2c1 ?
Key: criterion not met

* * *

Experiment: Metabolic stability in rat liver microsomes assessed as half life
measure.name: half-life (min)
One number for each entry, in min.

Exercise: For the molecule N#Cc1c(C2CCCC2)c2ccc(NCc3ccc(F)cn3)cc2n(CC2CCCC2)c1=O , give its reported half-life.
Key: 1.6

* * *

Target: 3',5'-cyclic-AMP phosphodiesterase 4D (Homo sapiens, UniProt Q08499)
Sequence (Q08499 whole entry): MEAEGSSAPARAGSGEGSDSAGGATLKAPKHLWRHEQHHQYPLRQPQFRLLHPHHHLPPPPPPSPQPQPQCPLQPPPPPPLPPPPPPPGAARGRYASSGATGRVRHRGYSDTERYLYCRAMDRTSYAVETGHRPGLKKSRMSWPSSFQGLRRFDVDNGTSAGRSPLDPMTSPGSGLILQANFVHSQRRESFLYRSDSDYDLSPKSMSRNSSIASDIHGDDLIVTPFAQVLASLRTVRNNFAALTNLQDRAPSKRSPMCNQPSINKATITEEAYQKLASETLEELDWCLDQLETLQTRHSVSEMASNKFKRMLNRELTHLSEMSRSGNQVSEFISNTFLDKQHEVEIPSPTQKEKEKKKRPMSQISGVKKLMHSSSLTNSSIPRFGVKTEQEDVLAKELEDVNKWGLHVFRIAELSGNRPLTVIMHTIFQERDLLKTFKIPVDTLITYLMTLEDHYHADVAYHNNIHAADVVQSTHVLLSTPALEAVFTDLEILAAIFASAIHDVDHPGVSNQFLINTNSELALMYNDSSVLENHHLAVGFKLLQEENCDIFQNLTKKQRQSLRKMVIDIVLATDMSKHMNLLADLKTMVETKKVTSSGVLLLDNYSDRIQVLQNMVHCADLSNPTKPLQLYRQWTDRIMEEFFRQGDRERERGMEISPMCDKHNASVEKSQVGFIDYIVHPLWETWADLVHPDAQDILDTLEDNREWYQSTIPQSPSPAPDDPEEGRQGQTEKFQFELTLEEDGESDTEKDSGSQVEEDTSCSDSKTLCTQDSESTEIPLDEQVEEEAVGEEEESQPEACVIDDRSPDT
measure.name: IC50 (nM)
Answers are plain numbers, in nM.

Exercise: # return recorded IC50 for input N#Cc1c(C2CCCC2)c2ccc(NCc3ccc(F)cn3)cc2n(CC2CCCC2)c1=O
Key: 610

* * *

Target: Dual specificity calcium/calmodulin-dependent 3',5'-cyclic nucleotide phosphodiesterase 1C (Homo sapiens)
Experiment: Inhibition of PDE1C (147 to 531 residues) (unknown origin) using 3H-cGMP as substrate incubated for 15 mins by liquid scintillation counter analysis
Would you mind telling me the reported log10(IC50) of each entry?
Recall that a logarithmic scale is used here: each number is log10 of IC50 in µM.

Answered examples (5):
CC(Nc1ccc2c(C3CC3)c(C#N)c(=O)n(Cc3ccccc3)c2c1)c1ccccn1 (stereo not given)    -0.66
CC(Nc1ccc2c(C3CCCC3)c(C#N)c(=O)n(Cc3ccccc3)c2c1)c1ccccn1 (stereo not given)    -1.70
Cc1ccc(-c2c(C#N)c(=O)n(Cc3ccccc3)c3ccccc23)cc1    -1.32
N#Cc1c(C2CCCC2)c2ccc(NCc3ccc(F)cn3)cc2n(CC2CCCC2)c1=O    -1.82
Cc1ccc(-c2c(C#N)c(=O)n(Cc3ccccc3)c3cc(NC(C)c4ccccn4)ccc23)cc1 (stereo not given)    -1.82

Value sought for every listed molecule: log10(IC50).
1. CC(C)c1c(C#N)c(=O)n(Cc2ccccc2)c2cc(NC(C)c3ccccn3)ccc12 (stereo not given)
2. Cc1ccc(-c2c(C#N)c(=O)n(Cc3ccccc3)c3ccc(NC(C)c4ccccn4)cc23)cc1 (stereo not given)
3. Cc1ccc(-c2c(C#N)c(=O)n(Cc3ccccc3)c3cc(NC(C)c4ccccc4)ccc23)cc1 (stereo not given)
4. Cc1ccc(-c2c(C#N)c(=O)n(CC3CCCC3)c3cc(NC(C)c4ccccn4)ccc23)cc1 (stereo not given)
5. CC(Nc1ccc2c(C(C)(C)C)c(C#N)c(=O)n(Cc3ccccc3)c2c1)c1ccccn1 (stereo not given)

Key:
[-1.66, -1.62, -1.26, -1.60, -1.08]

Exercise: Answer with reported log10(IC50) of Cc1ccc(-c2c(C#N)c(=O)[nH]c3ccccc23)cc1
Key: -0.35
